Data provenance: the supplement of paper PMC3334620

Measured PBM E-score by item
# study target: Upc2 (UniProt Q12151)
# Sequence: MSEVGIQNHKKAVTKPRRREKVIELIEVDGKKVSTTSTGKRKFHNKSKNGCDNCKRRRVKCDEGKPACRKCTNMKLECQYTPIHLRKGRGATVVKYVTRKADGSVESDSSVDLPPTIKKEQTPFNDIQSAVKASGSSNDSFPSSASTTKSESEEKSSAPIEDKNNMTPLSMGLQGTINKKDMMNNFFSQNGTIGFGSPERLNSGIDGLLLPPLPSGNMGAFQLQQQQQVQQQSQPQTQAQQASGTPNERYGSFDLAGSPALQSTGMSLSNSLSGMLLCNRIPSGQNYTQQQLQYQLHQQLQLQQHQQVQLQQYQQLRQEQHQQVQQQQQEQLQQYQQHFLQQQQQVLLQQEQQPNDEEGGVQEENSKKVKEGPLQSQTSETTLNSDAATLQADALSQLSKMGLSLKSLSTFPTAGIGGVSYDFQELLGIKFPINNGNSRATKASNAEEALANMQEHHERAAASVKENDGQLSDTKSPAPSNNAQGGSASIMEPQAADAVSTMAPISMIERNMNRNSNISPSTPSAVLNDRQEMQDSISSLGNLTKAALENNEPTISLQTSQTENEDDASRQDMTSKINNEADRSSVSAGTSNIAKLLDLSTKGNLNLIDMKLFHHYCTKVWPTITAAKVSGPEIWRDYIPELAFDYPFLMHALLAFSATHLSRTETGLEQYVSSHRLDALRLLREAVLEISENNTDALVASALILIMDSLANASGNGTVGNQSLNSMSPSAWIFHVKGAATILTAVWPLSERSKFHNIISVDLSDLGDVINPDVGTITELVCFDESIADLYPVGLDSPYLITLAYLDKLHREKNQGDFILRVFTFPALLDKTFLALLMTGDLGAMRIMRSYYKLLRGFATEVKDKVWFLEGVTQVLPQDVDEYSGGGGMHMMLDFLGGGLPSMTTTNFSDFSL
# assay name: PBM E-score (8-mer binding enrichment) (E-score (-0.5 to 0.5)); higher = stronger / more preferred TF binding
# measurement parameters: protein concentration: 200 nM; construct: GST-full length
Over roughly 33,000 sequences, “E-score (-0.5 to 0.5)” has its median near -0.043; the highest 2% begin near 0.37. The sample as a whole holds a higher share of the highest values than the screen did.
observed property: PBM E-score

{"columns": ["polymer sequence", "study target", "observed property", "assay result"],
 "data": [
  ["CTTCGTAC", "Upc2 (UniProt Q12151)", "PBM E-score", 0.458],
  ["GCGCTTAA", "Upc2 (UniProt Q12151)", "PBM E-score", 0.173],
  ["CGCATACC", "Upc2 (UniProt Q12151)", "PBM E-score", 0.212],
  ["ATCGTTGG", "Upc2 (UniProt Q12151)", "PBM E-score", 0.0354],
  ["ATGGTGGG", "Upc2 (UniProt Q12151)", "PBM E-score", -0.278],
  ["CCAAGCTA", "Upc2 (UniProt Q12151)", "PBM E-score", -0.182],
  ["ATACGAAT", "Upc2 (UniProt Q12151)", "PBM E-score", 0.459],
  ["ACTTGGCC", "Upc2 (UniProt Q12151)", "PBM E-score", -0.0135],
  ["GGTATAGA", "Upc2 (UniProt Q12151)", "PBM E-score", 0.111],
  ["ACAAATTC", "Upc2 (UniProt Q12151)", "PBM E-score", -0.0428],
  ["ATCATACG", "Upc2 (UniProt Q12151)", "PBM E-score", 0.383],
  ["CCGATGGA", "Upc2 (UniProt Q12151)", "PBM E-score", 0.109],
  ["ATTTCGCC", "Upc2 (UniProt Q12151)", "PBM E-score", 0.131],
  ["AACGTTCA", "Upc2 (UniProt Q12151)", "PBM E-score", 0.212],
  ["AGCAGCAC", "Upc2 (UniProt Q12151)", "PBM E-score", -0.113],
  ["CAAGCGAC", "Upc2 (UniProt Q12151)", "PBM E-score", 0.169],
  ["CCATACGC", "Upc2 (UniProt Q12151)", "PBM E-score", 0.322],
  ["CTACGAAG", "Upc2 (UniProt Q12151)", "PBM E-score", 0.316],
  ["ATCATACA", "Upc2 (UniProt Q12151)", "PBM E-score", 0.0941],
  ["CGTATAGC", "Upc2 (UniProt Q12151)", "PBM E-score", 0.483],
  ["CCTCGGAC", "Upc2 (UniProt Q12151)", "PBM E-score", 0.199],
  ["TCTCGTAA", "Upc2 (UniProt Q12151)", "PBM E-score", 0.434],
  ["CTTCGTAA", "Upc2 (UniProt Q12151)", "PBM E-score", 0.427],
  ["TCACGTAA", "Upc2 (UniProt Q12151)", "PBM E-score", 0.0344],
  ["ATCGTTCG", "Upc2 (UniProt Q12151)", "PBM E-score", 0.384],
  ["CCTCGTGA", "Upc2 (UniProt Q12151)", "PBM E-score", 0.168],
  ["CCCGTACA", "Upc2 (UniProt Q12151)", "PBM E-score", 0.398],
  ["ACCGTAGG", "Upc2 (UniProt Q12151)", "PBM E-score", -0.135],
  ["CTATCAGA", "Upc2 (UniProt Q12151)", "PBM E-score", -0.13],
  ["CCGTGGCC", "Upc2 (UniProt Q12151)", "PBM E-score", -0.206],
  ["CGTCTAGA", "Upc2 (UniProt Q12151)", "PBM E-score", 0.121],
  ["CCTCAGCA", "Upc2 (UniProt Q12151)", "PBM E-score", -0.21],
  ["CCTCATAG", "Upc2 (UniProt Q12151)", "PBM E-score", -0.226],
  ["CGCATACG", "Upc2 (UniProt Q12151)", "PBM E-score", 0.439],
  ["CCCGTACC", "Upc2 (UniProt Q12151)", "PBM E-score", 0.383],
  ["GCCGTACA", "Upc2 (UniProt Q12151)", "PBM E-score", 0.4],
  ["CTTCGTCC", "Upc2 (UniProt Q12151)", "PBM E-score", -0.316],
  ["AGTCTTTC", "Upc2 (UniProt Q12151)", "PBM E-score", -0.0324],
  ["AGAATAGA", "Upc2 (UniProt Q12151)", "PBM E-score", -0.17],
  ["TCTCGTCA", "Upc2 (UniProt Q12151)", "PBM E-score", -0.0265],
  ["AAAACTAC", "Upc2 (UniProt Q12151)", "PBM E-score", 0.137],
  ["GTACGAAA", "Upc2 (UniProt Q12151)", "PBM E-score", 0.442],
  ["ATCCGAAC", "Upc2 (UniProt Q12151)", "PBM E-score", 0.146],
  ["ATTCGTAC", "Upc2 (UniProt Q12151)", "PBM E-score", 0.452],
  ["CCAATAGC", "Upc2 (UniProt Q12151)", "PBM E-score", -0.22],
  ["ACCGTACG", "Upc2 (UniProt Q12151)", "PBM E-score", 0.383],
  ["AATAGCCT", "Upc2 (UniProt Q12151)", "PBM E-score", -0.081],
  ["ATTCGTGC", "Upc2 (UniProt Q12151)", "PBM E-score", -0.094],
  ["CACTTCAA", "Upc2 (UniProt Q12151)", "PBM E-score", -0.0335],
  ["AGTTCTCA", "Upc2 (UniProt Q12151)", "PBM E-score", -0.107],
  ["CCAGTACC", "Upc2 (UniProt Q12151)", "PBM E-score", 0.0225],
  ["ACACGAAG", "Upc2 (UniProt Q12151)", "PBM E-score", 0.211],
  ["CCTGCAAA", "Upc2 (UniProt Q12151)", "PBM E-score", -0.0886],
  ["GACGTTTA", "Upc2 (UniProt Q12151)", "PBM E-score", 0.366],
  ["AACAAGGC", "Upc2 (UniProt Q12151)", "PBM E-score", -0.167],
  ["ATTAGCCG", "Upc2 (UniProt Q12151)", "PBM E-score", 0.0535],
  ["AGTATAGA", "Upc2 (UniProt Q12151)", "PBM E-score", 0.137],
  ["ACACGAAT", "Upc2 (UniProt Q12151)", "PBM E-score", 0.258],
  ["CTTGGATA", "Upc2 (UniProt Q12151)", "PBM E-score", -0.103],
  ["CCTATAGC", "Upc2 (UniProt Q12151)", "PBM E-score", -0.286],
  ["ATACGAAG", "Upc2 (UniProt Q12151)", "PBM E-score", 0.476],
  ["CCTCGTCA", "Upc2 (UniProt Q12151)", "PBM E-score", 0.108],
  ["AACATACG", "Upc2 (UniProt Q12151)", "PBM E-score", 0.39],
  ["AGTTCGAA", "Upc2 (UniProt Q12151)", "PBM E-score", 0.0491],
  ["CTACCGTA", "Upc2 (UniProt Q12151)", "PBM E-score", 0.301],
  ["CTTCGTCA", "Upc2 (UniProt Q12151)", "PBM E-score", -0.0302],
  ["CTTCGTGA", "Upc2 (UniProt Q12151)", "PBM E-score", 0.112],
  ["CACGAGCA", "Upc2 (UniProt Q12151)", "PBM E-score", -0.0761],
  ["CACATACC", "Upc2 (UniProt Q12151)", "PBM E-score", -0.12],
  ["CGCGTTTA", "Upc2 (UniProt Q12151)", "PBM E-score", 0.415],
  ["CCTCGTAG", "Upc2 (UniProt Q12151)", "PBM E-score", 0.389],
  ["CAGAGACA", "Upc2 (UniProt Q12151)", "PBM E-score", -0.356],
  ["ATTCGTCC", "Upc2 (UniProt Q12151)", "PBM E-score", 0.0624],
  ["CACGTACA", "Upc2 (UniProt Q12151)", "PBM E-score", 0.272],
  ["CCCGTAGC", "Upc2 (UniProt Q12151)", "PBM E-score", 0.0891],
  ["AGCGTTCA", "Upc2 (UniProt Q12151)", "PBM E-score", -0.0376],
  ["GCACGAAA", "Upc2 (UniProt Q12151)", "PBM E-score", 0.127],
  ["AGTATAGC", "Upc2 (UniProt Q12151)", "PBM E-score", 0.128],
  ["GGCGTTTA", "Upc2 (UniProt Q12151)", "PBM E-score", 0.378],
  ["GCCGGGTA", "Upc2 (UniProt Q12151)", "PBM E-score", -0.143],
  ["CGGTTTAG", "Upc2 (UniProt Q12151)", "PBM E-score", 0.161],
  ["AAGATGCC", "Upc2 (UniProt Q12151)", "PBM E-score", 0.00959],
  ["ACCCTCTG", "Upc2 (UniProt Q12151)", "PBM E-score", -0.236],
  ["AACGAGCA", "Upc2 (UniProt Q12151)", "PBM E-score", 0.444],
  ["AGTTGTTC", "Upc2 (UniProt Q12151)", "PBM E-score", 0.127],
  ["AACATACC", "Upc2 (UniProt Q12151)", "PBM E-score", 0.16],
  ["GCCGTGCA", "Upc2 (UniProt Q12151)", "PBM E-score", -0.291],
  ["ATCCCCTC", "Upc2 (UniProt Q12151)", "PBM E-score", -0.0985],
  ["CCAGTACA", "Upc2 (UniProt Q12151)", "PBM E-score", -0.157],
  ["TAGCTAAA", "Upc2 (UniProt Q12151)", "PBM E-score", 0.119],
  ["AGACGAAT", "Upc2 (UniProt Q12151)", "PBM E-score", 0.0524]
]}
